From: ChEMBL document CHEMBL1961873

inhibition values for the compounds below.
# TARGET_SYSTEM: Platelet-derived growth factor receptor alpha (Homo sapiens) (UniProt P16234)
# Sequence (P16234 whole entry): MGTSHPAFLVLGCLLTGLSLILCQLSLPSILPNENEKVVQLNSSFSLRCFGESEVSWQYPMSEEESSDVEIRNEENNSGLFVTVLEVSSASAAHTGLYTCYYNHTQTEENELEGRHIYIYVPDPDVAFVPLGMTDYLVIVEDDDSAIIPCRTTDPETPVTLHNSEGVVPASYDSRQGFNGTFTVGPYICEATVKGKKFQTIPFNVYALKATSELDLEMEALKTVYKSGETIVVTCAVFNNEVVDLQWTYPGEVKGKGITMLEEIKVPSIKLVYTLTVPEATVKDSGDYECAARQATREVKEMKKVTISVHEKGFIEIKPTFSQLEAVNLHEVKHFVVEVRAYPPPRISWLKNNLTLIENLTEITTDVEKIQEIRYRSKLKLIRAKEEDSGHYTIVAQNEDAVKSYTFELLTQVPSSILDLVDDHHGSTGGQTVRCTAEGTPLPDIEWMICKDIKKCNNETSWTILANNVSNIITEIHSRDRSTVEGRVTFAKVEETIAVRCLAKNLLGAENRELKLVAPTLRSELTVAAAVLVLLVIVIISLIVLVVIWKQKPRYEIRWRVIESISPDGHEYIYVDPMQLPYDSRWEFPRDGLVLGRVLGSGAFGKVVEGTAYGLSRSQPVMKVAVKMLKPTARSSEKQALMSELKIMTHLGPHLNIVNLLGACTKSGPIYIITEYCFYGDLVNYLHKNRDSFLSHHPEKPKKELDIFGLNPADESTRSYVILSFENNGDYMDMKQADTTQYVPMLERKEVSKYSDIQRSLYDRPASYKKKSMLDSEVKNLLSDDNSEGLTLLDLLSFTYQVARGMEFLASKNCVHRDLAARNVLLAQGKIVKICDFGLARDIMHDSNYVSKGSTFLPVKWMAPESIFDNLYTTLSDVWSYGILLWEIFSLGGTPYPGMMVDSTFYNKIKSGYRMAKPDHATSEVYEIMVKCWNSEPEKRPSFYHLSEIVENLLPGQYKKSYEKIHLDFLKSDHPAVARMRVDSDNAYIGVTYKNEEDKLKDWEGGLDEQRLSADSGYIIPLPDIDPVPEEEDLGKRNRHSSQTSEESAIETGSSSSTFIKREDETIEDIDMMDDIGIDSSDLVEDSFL
# MEASUREMENT_CONTEXT: at 0.1 µM
# Description: GSK_PKIS: PDGFRA mean inhibition at 0.1 uM [Nanosyn]
ATTRIBUTE_MEASURED: inhibition (%)

[[record]]
compound = "C/C(Nc1ccc(S(N)(=O)=O)cc1)=C1/C(=O)Nc2ccccc21"
attribute_measured = "inhibition"
uom = "%"
measured_value = 13.8

[[record]]
compound = "NC(=O)c1cc(-c2ccncc2)cc(-c2ccccc2)c1N"
attribute_measured = "inhibition"
uom = "%"
measured_value = 9.17

[[record]]
compound = "Fc1ccc(-c2c(-c3ccncc3)nc3n2CCS3)cc1"
attribute_measured = "inhibition"
uom = "%"
measured_value = 4.27

[[record]]
compound = "COc1ccc2cc(-c3c(-c4ccncc4)nc(-c4ccc(S(C)(=O)=O)cc4C)n3C)ccc2c1"
attribute_measured = "inhibition"
uom = "%"
measured_value = 7.63

[[record]]
compound = "COC(=O)Nc1nc2ccc(Sc3ccc(NC(=O)Nc4cc(C(F)(F)F)ccc4F)cc3)cc2[nH]1"
attribute_measured = "inhibition"
uom = "%"
measured_value = 10.8

[[record]]
compound = "CN(C)CCOc1ccc(-c2cc(-c3ccc4c(c3)CCC4=NO)c(-c3ccncc3)o2)cc1"
attribute_measured = "inhibition"
uom = "%"
measured_value = 3.05

[[record]]
compound = "C[C@@H](Oc1cc(-n2cnc3ccc(OCC4CCN(C)CC4)cc32)sc1C(N)=O)c1ccccc1Cl"
attribute_measured = "inhibition"
uom = "%"
measured_value = 26.5

[[record]]
compound = "COc1cc2ncn(-c3cc(OCc4ccccc4C(F)(F)F)c(C(C)=O)s3)c2cc1OC"
attribute_measured = "inhibition"
uom = "%"
measured_value = 10.4

[[record]]
compound = "COc1ccc(-c2ccc3c(NC(=O)C4CC4)n[nH]c3n2)cc1"
attribute_measured = "inhibition"
uom = "%"
measured_value = 3.05

[[record]]
compound = "N#Cc1ccc(Oc2nccc(-c3c(-c4ccc(F)cc4)ncn3C3CCNCC3)n2)cc1"
attribute_measured = "inhibition"
uom = "%"
measured_value = 4.83

[[record]]
compound = "COc1ccc2cc(-c3c(-c4ccncc4)nc(-c4ccc([S+](C)[O-])cc4C)n3C)ccc2c1 (stereo not drawn)"
attribute_measured = "inhibition"
uom = "%"
measured_value = 0.98

[[record]]
compound = "CS(=O)(=O)CCNCc1ccc(-c2ccc3ncnc(Nc4ccc(OCc5ccccc5)c(Br)c4)c3c2)o1"
attribute_measured = "inhibition"
uom = "%"
measured_value = 6.94

[[record]]
compound = "CN1CCN(CCCNc2nc3ccc(Oc4ccc(NC(=O)Nc5cc(C(F)(F)F)ccc5F)cc4)cc3[nH]2)CC1"
attribute_measured = "inhibition"
uom = "%"
measured_value = 32.6


====

Overview of recorded inhibition for various compounds
# TARGET_SYSTEM: Inhibitor of nuclear factor kappa-B kinase subunit alpha (Homo sapiens);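 further: mean percent inhibition from GSK PKIS profiling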
# Sequence (whole entry): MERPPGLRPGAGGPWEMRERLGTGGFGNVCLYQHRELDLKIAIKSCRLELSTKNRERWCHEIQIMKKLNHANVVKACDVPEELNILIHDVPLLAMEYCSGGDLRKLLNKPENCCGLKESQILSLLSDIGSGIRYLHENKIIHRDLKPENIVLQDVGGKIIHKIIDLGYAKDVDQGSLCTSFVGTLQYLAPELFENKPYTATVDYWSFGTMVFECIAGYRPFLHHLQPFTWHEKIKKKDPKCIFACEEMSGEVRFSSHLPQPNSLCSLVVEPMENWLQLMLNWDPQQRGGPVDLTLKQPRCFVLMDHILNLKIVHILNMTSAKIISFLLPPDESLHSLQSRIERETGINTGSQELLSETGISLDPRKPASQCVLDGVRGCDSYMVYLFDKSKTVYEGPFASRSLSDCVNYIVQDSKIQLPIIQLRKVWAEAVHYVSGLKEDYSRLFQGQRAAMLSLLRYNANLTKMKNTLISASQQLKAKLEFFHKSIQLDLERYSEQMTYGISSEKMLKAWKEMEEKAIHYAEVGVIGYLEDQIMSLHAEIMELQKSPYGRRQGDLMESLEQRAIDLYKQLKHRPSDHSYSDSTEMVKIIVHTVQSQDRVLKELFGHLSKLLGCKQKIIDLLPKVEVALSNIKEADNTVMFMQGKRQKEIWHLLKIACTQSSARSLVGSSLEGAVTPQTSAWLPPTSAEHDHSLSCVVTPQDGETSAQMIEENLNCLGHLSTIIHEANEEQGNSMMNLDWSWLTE
# MEASUREMENT_CONTEXT: at 0.1 µM
ATTRIBUTE_MEASURED: inhibition (%)

[[record]]
structure_as_smiles = "COc1ccc(C2=C(N3CCc4ccccc43)C(=O)NC2=O)cc1"
measured_value = 9.04

[[record]]
structure_as_smiles = "NC(=O)Cc1ccccc1Oc1nccc(-c2c(-c3ccc(F)cc3)ncn2C2CCNCC2)n1"
measured_value = 8.64

[[record]]
structure_as_smiles = "NS(=O)(=O)c1ccc(Nc2cc(-c3ccc(O)c(F)c3)n[nH]2)cc1"
measured_value = -1.61

[[record]]
structure_as_smiles = "COc1cc(C)c(N(C)C(=O)CN(C)C)cc1Nc1nc(Nc2cccc(F)c2C(N)=O)c2cc[nH]c2n1"
measured_value = 3.63

[[record]]
structure_as_smiles = "NS(=O)(=O)c1ccc(N/N=C2\\C(=O)Nc3ccc(-c4cnco4)cc32)cc1"
measured_value = 1.42

[[record]]
structure_as_smiles = "COc1cc(Nc2ncc3c(C)nc(-c4cccc(C(F)(F)F)c4)n3n2)cc(OC)c1OC"
measured_value = -0.47

[[record]]
structure_as_smiles = "O=C(Nc1n[nH]c2cc(-c3ccccc3)ccc12)C1CC1"
measured_value = 2.61

[[record]]
structure_as_smiles = "CN(C)CCCNc1nccc(-c2c(-c3ccc(F)cc3)nn3cc(C(F)(F)F)ccc23)n1"
measured_value = 4.46

[[record]]
structure_as_smiles = "O=C(NCC1CC1)c1ccc(-c2cccc(C(=O)NC3CC3)c2)cc1"
measured_value = 4.96

[[record]]
structure_as_smiles = "O=C1NC(=O)C(c2cccc(Cl)c2)=C1Nc1ccc(Cl)c(C(=O)O)c1"
measured_value = 2.51

[[record]]
structure_as_smiles = "c1ccc(Oc2ccc(Nc3ncc(-c4ccccc4)o3)cc2)cc1"
measured_value = 5.9

[[record]]
structure_as_smiles = "Cc1ccc(C(=O)NC2CCC2)cc1-c1ccc(C(=O)NCC2CC2)cc1"
measured_value = 5.36

[[record]]
structure_as_smiles = "COc1ccc2cc(-c3c(-c4ccncc4)nc(-c4ccc(S(C)(=O)=O)cc4C)n3C)ccc2c1"
measured_value = -0.1

[[record]]
structure_as_smiles = "NC(=O)c1ccc(Oc2nccc(-c3c(-c4ccc(F)cc4)ncn3C3CCNCC3)n2)cc1"
measured_value = 5.54

[[record]]
structure_as_smiles = "Clc1ccc(CNc2nccc(-c3cnn4ncccc34)n2)cc1"
measured_value = 1.91

[[record]]
structure_as_smiles = "Fc1ccc(-c2nc3n(c2-c2ccncc2)CCS3)cc1"
measured_value = 5.66

[[record]]
structure_as_smiles = "C[C@@H](Oc1cc(-n2cnc3ccc(OC4CCN(C)CC4)cc32)sc1C(N)=O)c1ccccc1Cl"
measured_value = 6.24

[[record]]
structure_as_smiles = "Fc1ccc(-c2ncn(C3CCNCC3)c2-c2ccnc(Oc3ccc(Oc4ccccc4)cc3)n2)cc1"
measured_value = 4.44


====

# TARGET_SYSTEM: Cyclin-dependent kinase 5 (Homo sapiens);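 further: mean value of inhibition, with the enzyme tested as CDK5/p35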
# MEASUREMENT_CONTEXT: at 1 µM
Measured inhibition, listed per entry for reference.
ATTRIBUTE_MEASURED: inhibition

[[record]]
compound = "NC(=O)c1cc(-c2ccc(F)cc2)cc(-c2ccncc2)c1N"
measured_value = "-1.83%"

[[record]]
compound = "Fc1ccc(-c2c(-c3ccncc3)nc3n2CCS3)cc1"
measured_value = "-3.63%"

[[record]]
compound = "CS(=O)(=O)CCNCc1ccc(-c2ccc3ncnc(Nc4ccc(OCc5ccccc5)c(Br)c4)c3c2)o1"
measured_value = "-2.4%"

[[record]]
compound = "NC(=O)Cc1ccccc1Oc1nccc(-c2c(-c3ccc(F)cc3)ncn2C2CCNCC2)n1"
measured_value = "0.67%"

[[record]]
compound = "Cc1nnc(-c2ccc(C)c(-c3ccc(C(=O)NCc4ccc(Cl)cc4)cc3)c2)o1"
measured_value = "-4.02%"

[[record]]
compound = "CCC(=O)Nc1ccc(C)c(-c2ccc(C(=O)NCC3CC3)cc2)c1"
measured_value = "1.54%"

[[record]]
compound = "CN(C)CCCNc1nccc(-c2c(-c3ccc(F)cc3)nn3cc(C(F)(F)F)ccc23)n1"
measured_value = "1.69%"

[[record]]
compound = "O=C(Nc1ccc(Oc2ccc3[nH]c(NC(=O)c4ccccc4)nc3c2)cc1)Nc1cc(C(F)(F)F)ccc1F"
measured_value = "3.03%"

[[record]]
compound = "CCN(CC)Cc1ccc(Nc2nccc(-c3cnn4ncccc34)n2)cc1"
measured_value = "66.8%"

[[record]]
compound = "COc1cc(Nc2ncc3c(C)nc(-c4cccc(Oc5ccccc5)c4)n3n2)cc(OC)c1OC"
measured_value = "1.06%"

[[record]]
compound = "O=C(Nc1n[nH]c2nc(-c3ccc(O)cc3)c(Br)cc12)C1CC1"
measured_value = "55.3%"

[[record]]
compound = "Nc1nccc(-c2c(-c3ccc(F)cc3)ncn2C2CCC(O)CC2)n1 (configuration not stated)"
measured_value = "1.98%"

[[record]]
compound = "CN(C)CCOc1ccc(-c2cc(-c3ccc4c(c3)CCC4=NO)c(-c3ccncc3)o2)cc1"
measured_value = "0.57%"

[[record]]
compound = "NS(=O)(=O)c1ccc(N/N=C2\\C(=O)Nc3ccc(C(=O)NCCCn4ccnc4)cc32)cc1"
measured_value = "72.8%"

[[record]]
compound = "Cc1ccc(C(=O)NC2CCC2)cc1-c1ccc(C(=O)NCC2CC2)cc1"
measured_value = "1.18%"

[[record]]
compound = "COc1cc(C)c(N(C)C(=O)CN(C)C)cc1Nc1nc(Nc2cccc(F)c2C(N)=O)c2cc[nH]c2n1"
measured_value = "-4.34%"

[[record]]
compound = "CN(C)c1ccc2c(c1)/C(=C/Nc1ccc(S(N)(=O)=O)cc1)C(=O)N2"
measured_value = "57%"

